// data source = patent US20180179198A1

Readings of pIC50 for the listed compounds
Target: TNFα trimer (Homo sapiens, UniProt P01375)
Sequence (P01375 77-233 limits assumed): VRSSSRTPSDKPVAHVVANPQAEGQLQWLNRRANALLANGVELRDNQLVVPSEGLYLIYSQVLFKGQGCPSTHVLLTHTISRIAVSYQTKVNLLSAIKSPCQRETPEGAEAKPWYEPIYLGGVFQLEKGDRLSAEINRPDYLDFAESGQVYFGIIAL
Experiment: TNFα FP Competitive Binding Assay
Settings: fluorescence polarization competition; 20 nM TNFα trimer, 1 nM OregonGreen488 probe; read-out: TNF IC50 (TNFα FP binding assay IC50)
pIC50: −log10 of the molar value.
quantity-measured: pIC50

compound	system-under-test	quantity-measured	test-result
CC(=O)N1CCN(c2ncc(-c3ccc4nc5n(c4n3)[C@@H](c3ccccc3)CC5)cn2)C[C@@H]1C [Example 42]	TNFα trimer (Homo sapiens, UniProt P01375)	pIC50	> 6.00
C1=C(c2ccc3nc4n(c3n2)C2(COC4)COc3ccccc32)CCN(c2ccncn2)C1 (centres unmarked) [Example 73]	TNFα trimer (Homo sapiens, UniProt P01375)	pIC50	5.00 to 6.00
OC1(c2ccc(F)cc2)CCCCc2nc3ccc(-c4cnc(N5CCOCC5)nc4)cn3c21 (centres unmarked) [J.4]	TNFα trimer (Homo sapiens, UniProt P01375)	pIC50	5.00 to 6.00
COc1cccc(C2(O)CCCCc3nc4ccc(-c5cnc(N6CCOCC6)nc5)cn4c32)c1 (centres unmarked) [J.10]	TNFα trimer (Homo sapiens, UniProt P01375)	pIC50	4.00 to 5.00
NC1CC2(CCN(c3ncc(-c4ccc5nc6n(c5c4)[C@@H](c4ccccc4)COC6)cn3)CC2)C1 [Example 36]	TNFα trimer (Homo sapiens, UniProt P01375)	pIC50	> 6.00
Cc1cccc(C2(O)CCCc3nc4ccc(-c5cnc(N6CCOCC6)nc5)cn4c32)c1 (centres unmarked) [I.3]	TNFα trimer (Homo sapiens, UniProt P01375)	pIC50	5.00 to 6.00
O=C(O)CC1CCCN(c2ncc(-c3ccc4nc5n(c4c3)[C@@H](c3ccccc3)COC5)cn2)C1 (some centres unmarked) [G.3]	TNFα trimer (Homo sapiens, UniProt P01375)	pIC50	5.00 to 6.00
COc1ccccc1C1COCc2nc3ccc(-c4cnc(C(C)(C)O)nc4)cn3c21 (centres unmarked) [Example 32]	TNFα trimer (Homo sapiens, UniProt P01375)	pIC50	> 6.00
O=C(O)CCC1CCN(c2ncc(-c3ccc4nc5n(c4c3)[C@@H](c3ccccc3)COC5)cn2)CC1 [G.10]	TNFα trimer (Homo sapiens, UniProt P01375)	pIC50	5.00 to 6.00
Cc1ccc(C)c(C2CCc3nc4ccc(-c5cnc(N6CCC(O)CC6)nc5)nc4n32)c1 (centres unmarked) [N.3]	TNFα trimer (Homo sapiens, UniProt P01375)	pIC50	> 6.00
OC1(c2ccc(Cl)cc2)CCCCc2nc3ccc(-c4cnc(N5CCOCC5)nc4)cn3c21 (centres unmarked) [J.8]	TNFα trimer (Homo sapiens, UniProt P01375)	pIC50	5.00 to 6.00
CC(C)(O)c1ncc(-c2ccc3nc4n(c3c2)C(C2CCOCC2)CC4)cn1 (centres unmarked) [Example 38]	TNFα trimer (Homo sapiens, UniProt P01375)	pIC50	4.00 to 5.00
c1ccc([C@H]2CCc3nc4ccc(-c5ccnc(O[C@H]6CCNC6)c5)nc4n32)cc1 [Example 49]	TNFα trimer (Homo sapiens, UniProt P01375)	pIC50	5.00 to 6.00
CC(C)(O)c1ncc(-c2ccc3nc4n(c3n2)[C@@H](c2ccccc2)[C@@H]2C[C@H]4O2)cn1 [Example 70]	TNFα trimer (Homo sapiens, UniProt P01375)	pIC50	4.00 to 5.00
CC(C)(O)c1ncc(-c2ccc3nc4n(c3c2)C(c2ccccc2O)CCC4)cn1 (centres unmarked) [E.2]	TNFα trimer (Homo sapiens, UniProt P01375)	pIC50	4.00 to 5.00
CCN(C)C(=O)c1cccc(-c2ccc3nc4n(c3c2)C(c2ccccc2)CC4)c1 (centres unmarked) [A.44]	TNFα trimer (Homo sapiens, UniProt P01375)	pIC50	4.00 to 5.00
c1ccc([C@H]2COCc3nc4ccc(-c5cnc(N6CCC7(COC7)C6)nc5)cc4n32)cc1 [G.16]	TNFα trimer (Homo sapiens, UniProt P01375)	pIC50	5.00 to 6.00

---

Target: TNFα trimer (Homo sapiens, UniProt P01375)
Test: TNFα FP Competitive Binding Assay
Details: TNFα FP competitive binding assay; class symbols A/B/C; read-out: TNF IC50
pIC50: −log10 of the molar value.
Readings of pIC50 for the listed compounds

compound	pIC50
CC(C)(O)c1ncc(-c2ccc3nc4n(c3c2)[C@@H](c2ccccc2)CCC4)cn1	> 6.00
OCC1CCCN(c2ncc(-c3ccc4nc5n(c4n3)C(c3ccccc3)COC5)cn2)C1 (stereo not drawn)	> 6.00
CC(C)(O)c1ncc(-c2ccc3nc4n(c3n2)[C@]2(CCOc3ccccc32)COC4)cn1	> 6.00
OC1CC(Nc2ncc(-c3ccc4nc5n(c4n3)C3(COC5)COc4ccccc43)cn2)C1 (stereo not drawn)	5.00 to 6.00
OC1CC2(CCN(c3ncc(-c4ccc5nc6n(c5c4)[C@@H](c4ccccc4)COC6)cn3)CC2)C1	> 6.00
c1ccc2c(c1)CCC21COCc2nc3ccc(-c4cnc(N5CCCOCC5)nc4)nc3n21 (stereo not drawn)	> 6.00
c1ccc(C2COCc3nc4ccc(-c5cnc(N6CCCOCC6)nc5)nc4n32)cc1 (stereo not drawn)	5.00 to 6.00
O=C1NCC2CN(c3ncc(-c4ccc5nc6n(c5c4)C(c4ccccc4F)COC6)cn3)CCN12 (stereo not drawn)	> 6.00
COc1ccccc1C1CCCc2nc3ccc(-c4cnc(N5CCCC(O)CC5)nc4)cn3c21 (stereo not drawn)	> 6.00

---

Molecular target: TNFα trimer (Homo sapiens, UniProt P01375)
Test: TNFα FP Competitive Binding Assay
Conditions: fluorescence polarization competition; 20 nM TNFα trimer, 1 nM OregonGreen488 probe; read-out: TNF IC50 (TNFα FP binding assay IC50)
Structures can show the parent of a compound that is named as a salt.

molecule	system-under-test	IC50
CC(C)(O)c1ncc(-c2ccc3nc4n(c3n2)[C@@](C)(c2ccccc2)CC4)cn1	TNFα trimer (Homo sapiens, UniProt P01375)	< 1000 nM
Cc1c(F)cccc1C1(O)CCCc2nc3ccc(-c4cnc(N5CCOCC5)nc4)cn3c21 (stereo not shown)	TNFα trimer (Homo sapiens, UniProt P01375)	1000 to 10000 nM
CC(C)(O)c1ncc(-c2ccc3nc4n(c3n2)C2(COC4)CC(O)c3ccccc32)cn1 (stereo not shown)	TNFα trimer (Homo sapiens, UniProt P01375)	1000 to 10000 nM
N#CCOc1ccc(-c2ccc3nc4n(c3c2)C(c2ccccc2)CC4)cc1 (stereo not shown)	TNFα trimer (Homo sapiens, UniProt P01375)	1000 to 10000 nM
OCC1CN(c2ncc(-c3ccc4nc5n(c4c3)[C@@H](c3ccccc3)COC5)cn2)CCO1 (stereo partly shown)	TNFα trimer (Homo sapiens, UniProt P01375)	< 1000 nM
c1ccc([C@H]2COCc3nc4ccc(-c5cnc(N6[C@H]7CCC[C@@H]6CNCC7)nc5)cc4n32)cc1	TNFα trimer (Homo sapiens, UniProt P01375)	< 1000 nM
CC(C)(O)c1ncc(-c2ccc3nc4n(c3n2)C(c2ccccn2)CC4)cn1 (stereo not shown)	TNFα trimer (Homo sapiens, UniProt P01375)	1000 to 10000 nM
OC1CCN(c2ncc(-c3ccc4nc5n(c4n3)C(c3ccccc3)CC5)cn2)CC1 (stereo not shown)	TNFα trimer (Homo sapiens, UniProt P01375)	< 1000 nM
CC(C)(O)c1ncc(-c2ccc3nc4n(c3n2)C(c2cccc(F)c2)CC4)cn1 (stereo not shown)	TNFα trimer (Homo sapiens, UniProt P01375)	< 1000 nM
Cc1ccc(C2(O)CCCc3nc4ccc(-c5cnc(N6CCOCC6)nc5)cn4c32)cc1 (stereo not shown)	TNFα trimer (Homo sapiens, UniProt P01375)	1000 to 10000 nM
OCC1CCCN(c2ncc(-c3ccc4nc5n(c4c3)[C@@H](c3ccccc3)COC5)cn2)C1 (stereo partly shown)	TNFα trimer (Homo sapiens, UniProt P01375)	< 1000 nM
O=P(O)(O)OC1CCN(c2ncc(-c3ccc4nc5n(c4n3)[C@@H](c3ccccc3)CC5)cn2)CC1 [Example 46.1, phosphate hydrochloride]	TNFα trimer (Homo sapiens, UniProt P01375)	1000 to 10000 nM
c1ccc([C@H]2CCc3nc4ccc(-c5ccnc(OCC6CCOCC6)c5)nc4n32)cc1	TNFα trimer (Homo sapiens, UniProt P01375)	1000 to 10000 nM
c1ccc(C2CCc3nc4ccc(-c5cnc(N6CCOCC6)nc5)nc4n32)cc1 (stereo not shown)	TNFα trimer (Homo sapiens, UniProt P01375)	< 1000 nM
O[C@H]1CC[C@H](Oc2cc(-c3ccc4nc5n(c4n3)[C@@]3(COC5)COc4ccccc43)ccn2)CC1	TNFα trimer (Homo sapiens, UniProt P01375)	< 1000 nM
CNS(=O)(=O)c1ccc(-c2ccc3nc4n(c3c2)C(c2ccccc2)CC4)cc1 (stereo not shown)	TNFα trimer (Homo sapiens, UniProt P01375)	< 1000 nM
N#CCc1cccc(-c2ccc3nc4n(c3c2)C(c2ccccc2)CC4)c1 (stereo not shown)	TNFα trimer (Homo sapiens, UniProt P01375)	1000 to 10000 nM
COc1ccccc1C1CCCc2nc3ccc(-c4ccc(OCC(=O)O)nc4)cn3c21 (stereo not shown)	TNFα trimer (Homo sapiens, UniProt P01375)	< 1000 nM
CCNC(=O)c1ccc(-c2ccc3nc4n(c3c2)C(c2ccccc2)CC4)cc1 (stereo not shown)	TNFα trimer (Homo sapiens, UniProt P01375)	1000 to 10000 nM
CS(=O)(=O)N1CCN(c2ncc(-c3ccc4nc5n(c4c3)[C@@H](c3ccccc3)COC5)cn2)CC1	TNFα trimer (Homo sapiens, UniProt P01375)	< 1000 nM
O=C1CN(c2ncc(-c3ccc4nc5n(c4c3)C(c3ccccc3)CCC5)cn2)CCN1 (stereo not shown)	TNFα trimer (Homo sapiens, UniProt P01375)	1000 to 10000 nM
OC[C@H]1CCCN1c1ncc(-c2ccc3nc4n(c3n2)[C@@H](c2ccccc2)CC4)cn1	TNFα trimer (Homo sapiens, UniProt P01375)	1000 to 10000 nM
